Would you kindly list melting point for each of these compounds?

[Q] Identify measured melting point corresponding to Cc1ccccc1NC(=O)C1CCc2ccccc2N1 (centres undefined)
[A] 115 to 117 °C

[Q] Identify measured melting point corresponding to "O=S(=O)(Cl)c1ccc(OCCBr)cc1"
[A] 59 to 61 °C

[Q] Identify measured melting point corresponding to "COc1ccc(CNc2ccncc2)cc1"
[A] 126 to 128 °C

[Q] Identify measured melting point corresponding to O=C(O)C1CCCCN1S(=O)(=O)c1cccs1 (centres undefined)
[A] 107 to 109 °C

[Q] Identify measured melting point corresponding to "CN1C(=O)CCc2cc(C(=O)O)ccc21"
[A] 209 to 211 °C

[Q] Identify measured melting point corresponding to "Cc1ccc(-n2nnnc2S)cc1"
[A] 112 to 114 °C

[Q] Identify measured melting point corresponding to "COC(=O)c1c(NC(=O)CCl)sc2c1CCC2"
[A] 98 to 100 °C

[Q] Identify measured melting point corresponding to "COc1ncc(Cl)c(Cl)n1"
[A] 43 to 45 °C

[Q] Identify measured melting point corresponding to "Cc1cc(CN2CCNCC2)no1"
[A] 59 to 71 °C

[Q] Identify measured melting point corresponding to "Nc1ccccc1N1C(=O)CCC1=O"
[A] 231 to 233 °C

[Q] Identify measured melting point corresponding to "O=C(c1ccccc1)c1nccs1"
[A] 40 to 42 °C

[Q] Identify measured melting point corresponding to "Cc1cc(=O)c(C(=O)O)nn1-c1ccccc1Cl"
[A] 215 to 217 °C

[Q] Identify measured melting point corresponding to Cc1cc2n(n1)C(=O)C(C)C(=O)N2 (centres undefined)
[A] 288 to 290 °C

[Q] Identify measured melting point corresponding to "O=C(O)c1ccc(Br)c(S(=O)(=O)N2CCOCC2)c1"
[A] 167 to 169 °C

[Q] Identify measured melting point corresponding to "Cn1nc(-c2ccccc2)c(C=O)c1Cl"
[A] 61 to 63 °C

[Q] Identify measured melting point corresponding to COc1ccc(C)cc1NC(=O)C1CCCN1 (centres undefined)
[A] 103 to 105 °C

[Q] Identify measured melting point corresponding to "CC(C)(C)OC(=O)NCCCCC(=O)O"
[A] 43 to 45 °C

[Q] Identify measured melting point corresponding to "Oc1ccc(-n2cnc3ccccc32)cc1"
[A] 278 to 280 °C

[Q] Identify measured melting point corresponding to "CCc1nc2ccccc2c(C(=O)O)c1C"
[A] 190 to 192 °C

[Q] Identify measured melting point corresponding to "Cc1ccc(Nc2snc(O)c2C#N)cc1"
[A] 232 to 234 °C

[Q] Identify measured melting point corresponding to CC(C(=O)O)n1cc(Cl)cn1 (centres undefined)
[A] 56 to 59 °C

[Q] Identify measured melting point corresponding to "N#CC(=O)c1ccc(Cl)cc1"
[A] 41 to 43 °C

[Q] Identify measured melting point corresponding to "CC(C)NC(=O)CN(C)CC(N)=S"
[A] 140 to 142 °C

[Q] Identify measured melting point corresponding to "O=C(O)CCCc1ccc(Cl)cc1"
[A] 58 to 60 °C

[Q] Identify measured melting point corresponding to "COc1ccc(CC#N)c(Cl)c1OC"
[A] 55 to 57 °C

[Q] Identify measured melting point corresponding to "ClCc1noc(-c2ccoc2)n1"
[A] 77 to 79 °C

[Q] Identify measured melting point corresponding to CC(c1ccccc1)n1c(S)nnc1-c1ccccc1 (centres undefined)
[A] 201 to 203 °C

[Q] Identify measured melting point corresponding to "N#CCc1ccc(Oc2ccc(N)cn2)cc1"
[A] 67 to 69 °C

[Q] Identify measured melting point corresponding to "Brc1ccc(SC2CCOCC2)nc1"
[A] 60 to 62 °C
